target.under.test: human glucagon receptor (human, UniProt P47871 26-477)
Sequence (P47871 26-477): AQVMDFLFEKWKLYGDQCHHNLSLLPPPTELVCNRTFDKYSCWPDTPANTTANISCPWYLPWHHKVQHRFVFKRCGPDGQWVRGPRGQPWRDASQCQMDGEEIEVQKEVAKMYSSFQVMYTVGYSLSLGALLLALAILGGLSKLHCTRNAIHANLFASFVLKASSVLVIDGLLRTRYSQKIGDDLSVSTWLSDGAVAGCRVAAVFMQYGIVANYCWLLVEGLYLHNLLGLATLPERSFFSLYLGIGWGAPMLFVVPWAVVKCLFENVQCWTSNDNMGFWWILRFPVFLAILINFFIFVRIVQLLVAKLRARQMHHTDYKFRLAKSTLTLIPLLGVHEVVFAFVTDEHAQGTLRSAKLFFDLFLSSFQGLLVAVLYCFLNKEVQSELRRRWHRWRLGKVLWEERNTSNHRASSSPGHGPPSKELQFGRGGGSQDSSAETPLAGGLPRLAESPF
test.details: cell-based or functional assay
Numbered stars: 1 amine (or outer) side, 2 acyl side, 3 side chain; on linkers, the order of the positions; unused ones are H or OH. Square brackets hold non-standard residues; d marks the D form. Side chains are listed from the residue outwards. Ends that are not written are not given here. γGlu = O=C(O)[C@H](CCC(=O)[*:2])N[*:1]; X70 = not defined here; Aib = CC(C)(N)C(=O)O
experimental.readout: EC50 hGlucagon-R (cAMP) (nM)
Reply with just the number (in nM).

| binder | units.of.measure | EC50 hGlucagon-R (cAMP) |
| --- | --- | --- |
| HXQGTFTSDLSKQKESRRAQDFIEWLKEGGPSSGRPPPS (dSer at 2; K(x53) at 14; C-terminal NH2) [SEQ ID NO: 83] | nM | 0.0413 |
| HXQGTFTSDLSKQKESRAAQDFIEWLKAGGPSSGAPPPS (dSer at 2; K(GABA-x60) at 14; C-terminal NH2) [SEQ ID NO: 58] | nM | 0.0151 |
| HXQGTFTSDLSKQKDSRRAQDFIEWLKNXGPSSGAPPPS (dSer at 2; K(γE-x53) at 14; dAla at 29; C-terminal NH2) [SEQ ID NO: 94] | nM | 0.0021 |
| HXQGTFTSDLSKQKEEEAAQDFIEWLKAGGPSSGAPPPS (dSer at 2; K(γE-x53) at 14; C-terminal NH2) [SEQ ID NO: 16] | nM | 0.117 |
| HXQGTFTSDLSKQKEEEAAXDFIEWLKAGGPSSGAPPPS (dSer at 2; K(γE-x53) at 14; Aib at 20; C-terminal NH2) [SEQ ID NO: 18] | nM | 0.152 |

Fill in the blank: the reported EC50 hGlucagon-R (cAMP) of HXQGTFTSDLSKQKDSRRAQDFIEWLKSGGPSSGAPPPS (dSer at 2; K(γE-x53) at 14; C-terminal NH2) [SEQ ID NO: 128] is ____.
0.0016

Same read-out for H[Aib]QGTFTSDLSKQK([γGlu-X70])DSRRAQDFIEWLKAGGPSSGAPPPS-NH2 (reading uncertain) [SEQ ID NO: 162] ?
0.0024

# repeat for HXQGTFTSDLSKQKDEQRAKDFIEWLKAXGPSSGAPPPS (Aib at 2; K(γE-x70) at 14; dAla at 29; C-terminal NH2) [SEQ ID NO: 199]
0.0072

What do you have for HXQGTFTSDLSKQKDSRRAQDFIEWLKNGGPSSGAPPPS (dSer at 2; K(γE-x53) at 14; C-terminal NH[(CH2)12-OH]) [SEQ ID NO: 107] ?
0.0378

And what about the binder HXQGTFTSDLSKQKDKRAAQLFIEWLKAXGPSSGAPPPS (Aib at 2; K(γE-x70) at 14; dAla at 29; C-terminal NH2) [SEQ ID NO: 211] ?
0.0264

Request: HXQGTFTSDLSKQKESLAAQDFIEWLKAGGPSSGAPPPS (dSer at 2; K(γE-x53) at 14; C-terminal NH2) [SEQ ID NO: 150]
0.0355

Further, for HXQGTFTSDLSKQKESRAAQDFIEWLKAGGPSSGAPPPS (dSer at 2; K(γE-x53) at 14; C-terminal NH2) [SEQ ID NO: 44] ?
0.012
